Just for reference, the supplement of paper PMC10065799 is where these values come from.

Give phosphorylation enrichment for every item shown.
- Assay Target: MERTK (UniProt Q12866)
- Sequence (Q12866 whole entry, looked up): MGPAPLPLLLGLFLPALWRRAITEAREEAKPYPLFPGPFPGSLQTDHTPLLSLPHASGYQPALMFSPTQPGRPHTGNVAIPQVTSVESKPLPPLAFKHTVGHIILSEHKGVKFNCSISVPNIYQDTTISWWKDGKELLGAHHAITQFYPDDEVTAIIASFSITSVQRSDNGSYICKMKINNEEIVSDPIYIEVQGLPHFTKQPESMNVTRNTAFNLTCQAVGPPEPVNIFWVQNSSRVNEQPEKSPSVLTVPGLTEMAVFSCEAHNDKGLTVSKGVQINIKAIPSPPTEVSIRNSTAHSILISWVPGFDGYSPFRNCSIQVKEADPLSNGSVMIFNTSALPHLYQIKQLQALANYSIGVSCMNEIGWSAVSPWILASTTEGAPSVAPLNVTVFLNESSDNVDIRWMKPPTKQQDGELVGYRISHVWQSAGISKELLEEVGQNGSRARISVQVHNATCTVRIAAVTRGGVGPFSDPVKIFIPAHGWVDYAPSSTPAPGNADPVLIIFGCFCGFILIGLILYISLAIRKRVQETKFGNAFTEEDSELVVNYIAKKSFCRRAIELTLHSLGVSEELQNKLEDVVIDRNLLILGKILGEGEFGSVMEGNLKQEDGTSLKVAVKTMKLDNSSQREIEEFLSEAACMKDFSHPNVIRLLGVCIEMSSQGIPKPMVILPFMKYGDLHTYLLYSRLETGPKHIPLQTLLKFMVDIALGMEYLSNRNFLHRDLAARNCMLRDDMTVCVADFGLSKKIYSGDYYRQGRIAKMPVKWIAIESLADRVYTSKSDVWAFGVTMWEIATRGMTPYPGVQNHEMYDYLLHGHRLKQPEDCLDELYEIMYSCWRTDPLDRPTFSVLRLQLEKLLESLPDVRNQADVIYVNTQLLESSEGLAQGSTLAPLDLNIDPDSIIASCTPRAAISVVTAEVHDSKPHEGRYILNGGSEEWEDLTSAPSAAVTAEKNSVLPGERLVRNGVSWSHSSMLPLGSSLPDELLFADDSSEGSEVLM
- Assay Name: phosphorylation enrichment, bacterial display (enrichment ratio); higher = better substrate or ligand; peptides without Tyr show the background

Field: example entries. Status: answers known.
[
  {
    "Input Sequence": "AHAGEYGEEAL [HBA1_Y25_A27E]",
    "Assay Target": "MERTK (UniProt Q12866)",
    "Reported Value": 0.544
  },
  {
    "Input Sequence": "LLASGYDSPIN [ABLIM1_Y638_R637G]",
    "Assay Target": "MERTK (UniProt Q12866)",
    "Reported Value": 0.52
  },
  {
    "Input Sequence": "LNLKDYNLVGG [GNAQ_Y356_E355D]",
    "Assay Target": "MERTK (UniProt Q12866)",
    "Reported Value": 0.412
  },
  {
    "Input Sequence": "LTEHGYSFTTT [ACTB_Y198_R196H]",
    "Assay Target": "MERTK (UniProt Q12866)",
    "Reported Value": 0.938
  }
]

Each of the following entries comes with a recorded value; kindly state phosphorylation enrichment for each.
1. ASKEPYFVHCI [MYO1D_Y585_R588H_YF]
2. IFLGAYDRFLP [SLC22A5_Y486_V481I_YF]
3. IENKLYGMSDP [RET_Y1062]
4. KSAAIYNPVIF [RHO_Y301_YF]
5. YYLGKYLQEVL [KLB_Y910]
6. PLDGEHFTLQI [TP53_Y327_Y327H]
7. SVTCTYSPALN [TP53_Y126]

1. 0.427
2. 3.84
3. 0.546
4. 4.6
5. 1.42
6. 0.465
7. 0.456

Please state, for each entry, its recorded phosphorylation enrichment.
1. RMSQRYRDVLQ [CYP1A2_Y72_G73R]
2. IIRRLYLKWHP [SACS_Y4333]
3. KDLPNYNWNSF [KISS1_Y112]

1. 0.522
2. 0.612
3. 0.491

Provide phosphorylation enrichment values for the following items, in order.
1. EELLRYAIVTP [POC5_Y37_H36R]
2. CSEEMYCLMLQ [RET_Y981_R982C]
3. DEEEEYEYMNR [ERBB3_Y1197_D1194E]
4. DPTNTYARPAE [SGMS2_Y24]
5. PKGWNYELPAT [PROM1_Y34_A31G]

1: 3.32; 2: 4.4; 3: 0.404; 4: 0.516; 5: 0.45

* * *

- Assay Target: SHP2-C SH2;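 note: peptide library displayed on the E. coli surface as eCPX fusions, selected cells deep-sequenced, score is each peptide's frequency after selection divided by its frequency in the input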
- Assay Name: SH2 binding enrichment of the phosphorylated peptide, bacterial display (enrichment ratio); higher = better substrate or ligand; peptides without Tyr show the background
Just so you know, the groups by SH2 binding enrichment go like this: range 1 (below 0.6), range 2 (0.6 to below 0.8), range 3 (0.8 or more)

Reference set, count: 2
[
  {
    "Input Sequence": "QRIFQYIQSRF [DYRK1B_Y273_YF]",
    "Cat": "range 3"
  },
  {
    "Input Sequence": "NVPILYTASQA [CTNNA1_Y222]",
    "Cat": "range 2"
  }
]

Could you place FKEDPYLVVNP [MCM6_Y810_E806K_YF] in its proper category? Many thanks.
range 2

Band for the recorded SH2 binding enrichment of QMQLKYSQSDL [SMC1A_Y714_R711Q] ?
range 1

Which SH2 binding enrichment band matches FDNPVYQKTTE [LDLR_Y828] ?
range 3

Which SH2 binding enrichment category applies to SARFPYLMAEK [LDHB_Y173_R172P] here?
range 1

Which of the defined bands does the recorded SH2 binding enrichment of CENCHYPIVPL [LCK_Y25] sit within?
range 1

# bin label for KLKRSYPSPDI [USP8_Y717_S718P]
range 2
